# System: RS4;11 (BCL-2 dependent acute lymphoblastic leukemia cell line)
# PROCEDURE DETAILS: RS4;11 Cell Proliferation Assay
# Assay type: cell-based
# CONDITION LABEL: Homo sapiens, RS4-11, RS4;11 cells, read-out: Cellular proliferation assay (IC50, nM) RS4
I'd appreciate it if you could label each record using IC50 and these ranges: class 1 = under 0.2 nM, class 2 = from 0.2 nM up to 0.4 nM, class 3 = 0.4 nM and over

Look over these answered cases.
COMPOUND: CC(C)c1ccccc1C1CN(Cc2ccc(F)cc2F)CCN1C1CC2(CCN(c3ccc(C(=O)NS(=O)(=O)c4ccc(NC[C@H]5CC[C@](C)(O)CC5)c([N+](=O)[O-])c4)c(Oc4cnc5[nH]ccc5c4)c3)CC2)C1 (stereo partly shown) [Example 50]
EXPERIMENTAL TARGET: RS4;11 (BCL-2 dependent acute lymphoblastic leukemia cell line)
CATEGORY LABEL: class 3

COMPOUND: CCc1ccccc1C1CN(Cc2ccc(OC)cc2)CCN1C1CC2(CCN(c3ccc(C(=O)NS(=O)(=O)c4ccc(NC[C@H]5CC[C@](C)(O)CC5)c([N+](=O)[O-])c4)c(Oc4cnc5[nH]ccc5c4)c3)CC2)C1 (stereo partly shown) [Example 76]
EXPERIMENTAL TARGET: RS4;11 (BCL-2 dependent acute lymphoblastic leukemia cell line)
CATEGORY LABEL: class 3

COMPOUND: CC(C)c1ccccc1C1CN(Cc2cnn(C3CC3)c2)CCN1C1CC2(CCN(c3ccc(C(=O)NS(=O)(=O)c4ccc(NC[C@H]5CC[C@](C)(O)CC5)c([N+](=O)[O-])c4)c(Oc4cnc5[nH]ccc5c4)c3)CC2)C1 (stereo partly shown) [Example 70]
EXPERIMENTAL TARGET: RS4;11 (BCL-2 dependent acute lymphoblastic leukemia cell line)
CATEGORY LABEL: class 2

COMPOUND: COc1cc(CN2CCN(C3CC4(CCN(c5ccc(C(=O)NS(=O)(=O)c6ccc(NC[C@H]7CC[C@](C)(O)CC7)c([N+](=O)[O-])c6)c(Oc6cnc7[nH]cc(F)c7c6)c5)CC4)C3)[C@H](c3ccccc3C(C)C)C2)cc(C)c1OC [Example 210]
EXPERIMENTAL TARGET: RS4;11 (BCL-2 dependent acute lymphoblastic leukemia cell line)
CATEGORY LABEL: class 1

As a next step, examine the compound that follows.
Input: Given CC(C)c1ccccc1C1CN(Cc2ccc(N(C)C)cc2)CCN1C1CC2(CCN(c3ccc(C(=O)NS(=O)(=O)c4ccc(NC[C@H]5CC[C@](C)(O)CC5)c([N+](=O)[O-])c4)c(Oc4cnc5[nH]ccc5c4)c3)CC2)C1 (stereo partly shown) [Example 114] , name the class its IC50 places it in.
Output: class 3
